# experimental_details: chemical genetic growth profiling, strain panel (AID 1159580);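 further: tested at 20 µM; growth read once vehicle control cultures reached saturation at 30 °C; 1 = growth at the plate median or of vehicle wells; lower values mean less growth of the strain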
# test_parameters: S. cerevisiae deletion strains, growth OD, locus YLR418C, strain cdc73, hits give low values
Out of some 5,500 compounds screened, about 2,000 (36%) were called active. Inconclusive results (about 18%) are left out. The list shows a part of the results.
Below is a list of entries, each paired with its recorded normalized growth value.

{"molecule": "NC[C@H]1O[C@H](OC2[C@@H](N)C[C@@H](N)[C@H](O[C@H]3O[C@H](CO)[C@@H](O)[C@H](N)[C@H]3O)[C@H]2O)[C@H](O)[C@@H](O)[C@@H]1O (some centres undefined)", "normalized growth": "0.97 (inactive)"}
{"molecule": "Cc1cc(N)c2ccccc2[n+]1CCCCCCCCCC[n+]1c(C)cc(N)c2ccccc21", "normalized growth": "0.101 (active)"}
{"molecule": "CC1=CC(=O)C2C(C)(C)CCC[C@]2(C)[C@@]1(O)CCc1ccoc1 (some centres undefined)", "normalized growth": "0.995 (inactive)"}
{"molecule": "C[C@@H]1CCC2[C@](C)(CO)[C@@H](O)CC[C@]2(C)[C@@]12CC[C@@](CO)(CCO)O2 (some centres undefined)", "normalized growth": "1.03 (inactive)"}
{"molecule": "C[N+]1(C)C[C@H](O)[C@H](C(=O)[O-])C1", "normalized growth": "1.01 (inactive)"}
{"molecule": "NC(=O)c1ccccc1O", "normalized growth": "1.02 (inactive)"}
{"molecule": "CC[C@H]1CN2CCC1C[C@@H]2[C@@H](O)c1ccnc2ccc(OC)cc12 (some centres undefined)", "normalized growth": "1.01 (inactive)"}
{"molecule": "NC[C@H]1O[C@H](O[C@H]2[C@H](O)[C@@H](O[C@H]3O[C@H](CO)[C@@H](O)[C@H](N)[C@H]3O)[C@H](N)C[C@@H]2N)[C@H](N)[C@@H](O)[C@@H]1O", "normalized growth": "1.06 (inactive)"}
{"molecule": "C/C=C/CC(C)C(O)C1C(=O)NC(CC)C(=O)N(C)CC(=O)N(C)C(CC(C)C)C(=O)NC(C(C)C)C(=O)N(C)C(CC(C)C)C(=O)NC(C)C(=O)NC(C)C(=O)N(C)C(CC(C)C)C(=O)N(C)C(CC(C)C)C(=O)N(C)C(C(C)C)C(=O)N1C (centres undefined)", "normalized growth": "0.925 (inactive)"}
{"molecule": "CC1(C)S[C@@H]2[C@H](NC(=O)C(C(=O)O)c3ccccc3)C(=O)N2[C@H]1C(=O)O (some centres undefined)", "normalized growth": "0.984 (inactive)"}
{"molecule": "Cc1ccc(C(C)C)c(O)c1C(=O)O", "normalized growth": "0.946 (inactive)"}
{"molecule": "CO[C@@H]1C[C@H](O[C@H]2CC[C@]3(C)C4CC[C@]5(C)[C@@H](C6=CC(=O)OC6)CC[C@]5(O)[C@@H]4CC[C@]3(O)C2)O[C@H](C)[C@@H]1O (some centres undefined)", "normalized growth": "0.651 (active)"}
{"molecule": "COc1c(O)cc2c(c1O)[C@H]1O[C@H](CO)[C@@H](O)[C@H](O)[C@@H]1OC2=O", "normalized growth": "1.02 (inactive)"}
{"molecule": "CCc1ccc2c(O)c3c(cc2c1C(=O)OC)C(=O)c1c(O)ccc(O)c1C3=O", "normalized growth": "0.932 (inactive)"}
{"molecule": "COC1CC(O[C@H]2CC[C@]3(C=O)C4CC[C@]5(C)C(C6=CC(=O)OC6)CC[C@]5(O)C4CC[C@]3(O)C2)OC(C)C1O (some centres undefined)", "normalized growth": "0.958 (inactive)"}
{"molecule": "CC(C)Nc1nc(Cl)nc(NC(C)C)n1", "normalized growth": "0.979 (inactive)"}
{"molecule": "CC(C)=CC1C(CO)C1(C)C (centres undefined)", "normalized growth": "0.99 (inactive)"}
{"molecule": "CSc1nc(NC(C)C)nc(NC(C)C)n1", "normalized growth": "1.04 (inactive)"}
{"molecule": "COc1cc(C(=O)O)cc(OC)c1OC", "normalized growth": "1.04 (inactive)"}
{"molecule": "NCCCN", "normalized growth": "1.03 (inactive)"}
{"molecule": "Nc1ccc(S(=O)(=O)Nc2ncccn2)cc1", "normalized growth": "0.997 (inactive)"}
{"molecule": "CC(C)(C)NCC(O)COc1cccc2c1C[C@H](O)[C@H](O)C2 (some centres undefined)", "normalized growth": "0.946 (inactive)"}
{"molecule": "COc1ccc(-c2cc(=O)c3c(O)cc(O)cc3o2)cc1", "normalized growth": "0.957 (inactive)"}
{"molecule": "COP(N)(=O)SC (centres undefined)", "normalized growth": "1.01 (inactive)"}
{"molecule": "N#Cc1c(Cl)cccc1Cl", "normalized growth": "1.01 (inactive)"}
{"molecule": "O=C(CCCN1CCC(O)(c2ccc(Cl)cc2)CC1)c1ccc(F)cc1", "normalized growth": "0.496 (active)"}
{"molecule": "O=C(/C=C(\\O)c1ccccc1)c1ccccc1O", "normalized growth": "0.64 (active)"}
{"molecule": "COC(=O)[C@H]1[C@H]2C[C@H]3c4[nH]c5cc(OC)ccc5c4CCN3C[C@H]2C[C@@H](OC(=O)c2cc(OC)c(OC)c(OC)c2)[C@@H]1OC", "normalized growth": "0.998 (inactive)"}
{"molecule": "C[C@@H](CO)NC(=O)C1C=C2c3cccc4[nH]cc(c34)C[C@H]2N(C)C1 (some centres undefined)", "normalized growth": "1.02 (inactive)"}
{"molecule": "COC(=O)NC(=S)Nc1ccccc1NC(=S)NC(=O)OC", "normalized growth": "0.972 (inactive)"}
{"molecule": "COc1ccccc1N1CCN(CCCNc2cc(=O)n(C)c(=O)n2C)CC1", "normalized growth": "0.97 (inactive)"}
{"molecule": "CC1=C2C(O)C(=O)OC3CC4C(C)(C)C(=O)C=C[C@]4(C)C(CC1)[C@]23C (some centres undefined)", "normalized growth": "1.07 (inactive)"}
{"molecule": "Oc1ccc2c3c1OC1[C@@H](O)CC[C@@]4(O)[C@@H](C2)N(CC2CCC2)CC[C@]314 (some centres undefined)", "normalized growth": "1.03 (inactive)"}
{"molecule": "CSCCC(N)C(=O)NC(CC(C)C)C(=O)NC(Cc1ccccc1)C(=O)O (centres undefined)", "normalized growth": "1 (inactive)"}
{"molecule": "O=C(O)c1cc(O)ccc1O", "normalized growth": "1.05 (inactive)"}
{"molecule": "COc1ccc(-c2cc(=O)c3c(O)c(OC)c(O[C@H]4O[C@H](CO[C@@H]5O[C@@H](C)[C@H](O)[C@@H](O)[C@H]5O)[C@@H](O)[C@H](O)[C@H]4O)cc3o2)cc1", "normalized growth": "1.03 (inactive)"}
{"molecule": "CC(=O)[C@@]1(O)CCC2C3C=C(Cl)C4=CC(=O)[C@@H]5CC5[C@]4(C)C3CC[C@@]21C (some centres undefined)", "normalized growth": "0.993 (inactive)"}
{"molecule": "C[C@]12CCC(=O)C=C1CCc1ccc(O)cc12", "normalized growth": "0.982 (inactive)"}
{"molecule": "CC1(C)S[C@@H]2C(N3C(=O)[C@@H](c4ccccc4)NC3(C)C)C(=O)N2[C@H]1C(=O)O (some centres undefined)", "normalized growth": "1.03 (inactive)"}

====

Measured normalized growth, listed per entry.
# experimental_details: chemical genetic growth profiling, strain panel (AID 1159580);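 further: tested at 20 µM; growth read once vehicle control cultures reached saturation at 30 °C; 1 = growth at the plate median or of vehicle wells; lower values mean less growth of the strain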
# test_parameters: S. cerevisiae deletion strains, growth OD, locus YOR069W, strain VPS5, hits give low values
Among all 5,500 compounds or so, about 2,000 (36%) were called active. Another 18% or so got no clear call; they are omitted. Some of the results follow.

{"compound": "C[C@@H]1O[C@@H](O[C@H]2CC[C@]3(C=O)C4CC[C@]5(C)[C@@H](C6=CC(=O)OC6)CC[C@]5(O)C4CC[C@]3(O)C2)[C@H](O)[C@H](O)[C@H]1O (stereo not given in full)", "normalized growth": 1}
{"compound": "COc1cc(C)c2c(=O)c3c(O)cc(OC)cc3oc2c1", "normalized growth": 1.01}
{"compound": "O=C(CCCN1CCC(O)(c2ccc(Cl)cc2)CC1)c1ccc(F)cc1", "normalized growth": 0.963}
{"compound": "Nc1nc(/C(=C/CC(=O)O)C(=O)N[C@@H]2C(=O)N3C(C(=O)O)=CCS[C@H]23)cs1", "normalized growth": 0.993}
{"compound": "COC1C(O)C(O[C@H]2CC[C@]3(C=O)C4C(CC[C@]3(O)C2)[C@@]2(O)CC[C@H](C3=CC(=O)OC3)[C@@]2(C)C[C@H]4OC(C)=O)OC(C)C1OC(C)=O (stereo not given in full)", "normalized growth": 1.02}
{"compound": "Cc1ccc(C(C)C)c(O)c1C(=O)O", "normalized growth": 0.974}
{"compound": "CO[C@H]1[C@H](O)[C@@H](O[C@H]2CC[C@]3(C=O)C4CC[C@]5(C)[C@@H](C6=CC(=O)OC6)CC[C@]5(O)C4CC[C@@H]3C2)O[C@@H](C)[C@@H]1O (stereo not given in full)", "normalized growth": 0.988}
{"compound": "O=C(O)CN(CCN(CC(=O)O)CC(=O)O)CC(=O)O", "normalized growth": 0.947}
{"compound": "CCC(=O)OCC(=O)[C@@]1(OC(=O)CC)[C@@H](C)CC2C3CCC4=CC(=O)C=C[C@]4(C)C3(F)[C@@H](O)C[C@@]21C (stereo not given in full)", "normalized growth": 0.973}
{"compound": "Cc1ccccc1N1C(=O)c2cc(S(N)(=O)=O)c(Cl)cc2NC1C (stereo not given)", "normalized growth": 0.986}
{"compound": "CC(=O)O[C@@H]1CC2C(C)(C)CCC[C@]2(C)C2CC[C@]3(C)C(=CC(=O)O[C@H]3c3ccoc3)[C@@]21C (stereo not given in full)", "normalized growth": 1.02}
{"compound": "CC1(C)S[C@@H]2[C@H](NC(=O)[C@@H](N)c3ccc(O)cc3)C(=O)N2[C@H]1C(=O)O", "normalized growth": 1.01}
{"compound": "CN(C)CC[C@H](c1ccc(Cl)cc1)c1ccccn1", "normalized growth": 1}
{"compound": "CC(=O)OC1CC[C@@]2(C)C(CCC3C2CC[C@]2(C)C(C4=CC(=O)OC4)C(OC(C)=O)CC32O)C1 (stereo not given in full)", "normalized growth": 0.999}
{"compound": "COC(=O)[C@H]1[C@H]2C[C@H]3c4[nH]c5cc(OC)ccc5c4CCN3C[C@H]2C[C@@H](OC(=O)c2cc(OC)c(OC)c(OC)c2)[C@@H]1OC", "normalized growth": 1}
{"compound": "CC1=CC(=O)C2C(C)(C)CCC[C@]2(C)[C@@]1(O)CCc1ccoc1 (stereo not given in full)", "normalized growth": 0.99}
{"compound": "NC[C@@H]1O[C@H](O[C@@H]2[C@@H](CO)OC(O[C@@H]3[C@@H](O)[C@H](N)C[C@H](N)[C@H]3O[C@H]3O[C@H](CO)[C@@H](O)[C@H](O)[C@H]3N)[C@@H]2O)[C@H](N)[C@@H](O)[C@@H]1O (stereo not given in full)", "normalized growth": 0.998}
{"compound": "C[C@H]1[C@H](C)CC[C@]2(C(=O)O)CC[C@]3(C)C(=CCC4[C@@]5(C)C[C@@H](O)[C@H](O)[C@@](C)(CO)C5[C@H](O)C[C@]43C)[C@H]12 (stereo not given in full)", "normalized growth": 0.998}
{"compound": "CC(C)Nc1nc(Cl)nc(NC(C)C)n1", "normalized growth": 1.01}
{"compound": "CC(=O)OCC(=O)[C@@]1(O)CCC2C3C[C@H](C)C4=CC(=O)C=CC4(C)C3[C@@H](O)CC21C (stereo not given in full)", "normalized growth": 1.01}
{"compound": "O=c1c(O)cc([C@H]2Oc3cc(O)cc(O)c3C[C@H]2O)cc2c([C@H]3Oc4cc(O)cc(O)c4C[C@H]3O)cc(O)c(O)c12", "normalized growth": 1}
{"compound": "CCCCC(=O)O[C@]1(C(=O)CO)[C@@H](C)CC2C3CCC4=CC(=O)C=C[C@]4(C)[C@@]3(F)C(O)C[C@@]21C (stereo not given in full)", "normalized growth": 0.989}
{"compound": "COC1=CC(C)[C@@H]2C[C@H]3OC(=O)C[C@H]4C(C)=C(OC)C(=O)C([C@@]34C)[C@@]2(C)C1=O (stereo not given in full)", "normalized growth": 1.01}
{"compound": "C/C=C/CC(C)C(O)C1C(=O)NC(CC)C(=O)N(C)CC(=O)N(C)C(CC(C)C)C(=O)NC(C(C)C)C(=O)N(C)C(CC(C)C)C(=O)NC(C)C(=O)NC(C)C(=O)N(C)C(CC(C)C)C(=O)N(C)C(CC(C)C)C(=O)N(C)C(C(C)C)C(=O)N1C (stereo not given)", "normalized growth": 1.02}
{"compound": "C[C@H]1O[C@@H](O[C@H]2[C@@H](O)C[C@H](O[C@H]3[C@@H](O)C[C@H](O[C@H]4CC[C@]5(C)C6CC[C@]7(C)[C@@H](C8=CC(=O)OC8)CC[C@]7(O)C6CC[C@@H]5C4)O[C@@H]3C)O[C@@H]2C)C[C@H](O)[C@@H]1O (stereo not given in full)", "normalized growth": 0.994}
{"compound": "COC(=O)CC1C(C)(C)C(OC(C)=O)[C@@H]2[C@@H](OC(C)=O)[C@]34O[C@@]2(O)[C@]1(C)C3CC[C@]1(C)C4=CC(=O)O[C@H]1c1ccoc1 (stereo not given in full)", "normalized growth": 1.01}
{"compound": "COc1c(O)cc2c(c1O)[C@H]1O[C@H](CO)[C@@H](O)[C@H](O)[C@@H]1OC2=O", "normalized growth": 0.985}
{"compound": "CSc1nc(NC(C)C)nc(NC(C)C)n1", "normalized growth": 1.01}
{"compound": "CCc1ccc2c(O)c3c(cc2c1C(=O)OC)C(=O)c1c(O)ccc(O)c1C3=O", "normalized growth": 0.999}
{"compound": "CC1CCCC(C)N1NC(=O)c1ccc(Cl)c(S(N)(=O)=O)c1 (stereo not given)", "normalized growth": 0.996}

Source of measurements: PubChem BioAssay AID1159580
